Please provide measured half-life for the entries that follow.
- ASSAY TEXT: Half life in human plasma by HPLC analysis
- Type: ADME, cell-free
Residues, ends and D or L forms follow the SMILES beside them.

Give me half-life for each of these compounds, listed below.
1. C[C@H](NC(=O)c1cccc(NC(=N)N)c1)C(=O)N[C@H]1CSSC[C@@H](C(=O)O)NC(=O)[C@H](Cc2ccccc2)NC(=O)[C@H](Cc2ccccc2)NC(=O)[C@H](CCCNC(=N)N)NC1=O (HELM PEPTIDE1{[N=C(N)Nc1cccc(C(=O)[*:2])c1].A.C.R.F.F.C}$PEPTIDE1,PEPTIDE1,3:R3-7:R3$$$V2.0)
2. C[C@H](NC(=O)[C@@H](N)CCCNC(=N)N)C(=O)N[C@H]1CSSC[C@@H](C(=O)O)NC(=O)[C@H](Cc2ccccc2)NC(=O)[C@H](Cc2ccccc2)NC(=O)[C@H](CCCNC(=N)N)NC1=O

Given back:
["> 120 min", "22 min"]
